Value source: the supplement of paper PMC9112550

# Tested on: Escherichia coli TOP10;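 further: peptides expressed intracellularly from a pBAD plasmid library in pooled LB shake-flask culture, induced with 0.3% L-arabinose, DNA abundance read by NGS, three biological replicates, DESeq2 with apeglm shrinkage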
# TEST DESCRIPTION: shrunken log2 fold change of peptide-encoding DNA abundance (4.5 h post-induction vs induction); higher = less antimicrobial activity (less host growth inhibition)
# STUDY CONDITIONS: time post-induction: 4.5 h; library: site-saturation at positions 5, 18, 19, 20
Overview of recorded shrunken log2 fold change for various sequences
Just the number, please.

Study these solved cases before continuing.
RRIRNRPPRLPRPRPRPALEPRP    0.025
RRIRNRPPRLPRPRPRPETVPRP    -0.00716
RRIRCRPPRLPRPRPRPITQPRP    -0.0791
RRIRERPPRLPRPRPRPGYHPRP    -0.502
RRIRFRPPRLPRPRPRPYKVPRP    -0.614

Kindly consider the entry below.
GET /values?readout=shrunken log2 fold change&item= RRIRQRPPRLPRPRPRPVHRPRP
-0.0635
